- assay system: human HER3 endogenously expressed on human cancer cells (SK-Br-3, BT-474, MCF7) (human, UniProt P21860 20-1342)
- test description: cell-based or functional assay
measurement label: MCF7 pHER3 IC50 (pM)
Note: unit pM is implicit; provide only the numeric part.

binder	measurement label	assay result
MOR14533 (antibody, human IgG1, kappa, V domains shown, Tested as IgG) VH: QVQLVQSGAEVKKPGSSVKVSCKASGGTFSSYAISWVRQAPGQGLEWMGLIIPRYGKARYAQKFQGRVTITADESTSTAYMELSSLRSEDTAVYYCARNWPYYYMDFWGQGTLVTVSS VL: EIVLTQSPATLSLSPGERATLSCRASQNIVFNLAWYQQKPGQAPRLLIYDASNRATGIPARFSGSGSGTDFTLTISSLEPEDFAVYYCQQTKSKPSPTFGQGTKVEIKR	MCF7 pHER3 IC50	50

Now turn to the next binder.
Value of measured MCF7 pHER3 IC50 for the entry MOR12605 (antibody, human IgG1, kappa, V domains shown, Tested as IgG) VH: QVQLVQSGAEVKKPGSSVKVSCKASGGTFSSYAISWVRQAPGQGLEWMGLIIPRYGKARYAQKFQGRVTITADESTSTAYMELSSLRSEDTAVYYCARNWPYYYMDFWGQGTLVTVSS VL: DIVLTQSPATLSLSPGERATLSCRASQNIVFNLAWYQQKPGQAPRLLIYDASNRATGVPARFSGSGSGTDFTLTISSLEPEDFAVYYCQQFRRKSNTFGQGTKVEIKR : 318
